System: U251 CNS
Experiment: NCI-60 one-dose screen, 48 h (100 = growth as untreated, 0 = no growth, -100 = all killed)
Conditions: 10 µM unless noted
About 83,000 compounds went through this panel and 20% of them were active in at least one assay; those are over-represented in the sample as a whole.
# maps each entry to its growth
Could you give me the number in %? Just the number is fine.

Consider the following illustrative entries.
compound | reading
C#CCOc1ccc(/C=N\Nc2nc(-c3ccc(C)cc3)cs2)cc1OC | 89.3
CCNC(=O)N1CCc2cc(OC)c(OCCc3ccc(OC)c(N)c3)cc2C1c1ccc(C)cc1C (centres undefined) | 17.8
C#C[C@]1(O)CC[C@H]2[C@@H]3CC=C4c5sc(-c6cccc(O)c6)nc5CC[C@]4(C)[C@H]3CC[C@@]21C | -47.6

Ask: Which growth value is on record for CCOC(=O)C(=O)/C(=C\c1ccc(Cl)cc1)C(=O)N1C(=S)NC(=O)C1CC(C)C (centres undefined) ?
Result: 101

Ask: Which growth value is on record for CCOc1ccc(C(=O)Nc2ncc(Cc3ccc(F)cc3)s2)cc1 ?
Result: 16

Ask: Which growth value is on record for CC(=O)c1ccc(Nc2nc(SCC(C)C)nc(-c3ccc(F)cc3)c2C#N)cc1 ?
Result: 104

Ask: Which growth value is on record for CC1=N[C@@H]2CN(C(=O)OC(C)(C)C)C[C@@H]2n2c1cc1ccccc1c2=O ?
Result: 106

Ask: Which growth value is on record for O=C(NCCn1ccnc1)c1ccc(-c2nc3ccc4[nH]ncc4c3c3c2CCCC3)cc1 ?
Result: 58.6

Ask: Which growth value is on record for Nc1ncc(-c2ccc3ncnc(N4CCc5cc(F)c(F)cc54)c3c2)cn1 ?
Result: 41.2

###

Test system: HOP-62 NSCLC
Assay: NCI-60 one-dose screen, 48 h
Conditions: 10 µM unless noted
This is part of a sample that, as a whole, favours compounds with a hit. Of some 83,000 tested, about 20% had one in any assay. The source made the active and inactive calls. The calls were made as follows: active = growth percent below 10; inactive = the rest.
The categories you may choose from are Yes (active), No (inactive)

Worked examples, 5 compounds total:
compound | qualitative_label
O=C(NNc1nc2cc(F)c(F)cc2n2c(CN3CC4CNCC4C3)ccc12)c1cnccn1 (centres undefined) | No
COc1cccc(C(=O)Nc2cccc(C#Cc3cccc4[nH]nc(N)c34)c2)c1 | No
CN1CCN(c2ccc(/C=N/n3cnc4oc(-c5ccccc5)cc4c3=N)cc2)CC1 | No
CC(=O)Nc1cccc(Nc2nc(N[C@H](C)c3ccccc3)c3ccccc3n2)c1 | No
Cc1nc2ncc(-c3ccc4ncnc(NCc5ccccc5)c4c3)cc2[nH]1 | No

Ask: Any idea what this test logged for CCN1CCN(Cc2cn(-c3ccc(S(N)(=O)=O)cc3)nn2)CC1 ?
Result: No

Ask: Any idea what this test logged for COc1ccc(-c2nc(C(Cl)Cl)nc3cc(-c4ccccc4)nn23)cc1 ?
Result: Yes

Ask: Any idea what this test logged for CS(=O)(=O)c1ccc(-c2nn(-c3ccccc3)cc2/C=N/NC(=O)c2nc(N)n[nH]2)cc1 ?
Result: No

###

# maps each entry to its growth
System: A498 renal
Experiment: NCI-60 one-dose screen, 48 h (100 = growth as untreated, 0 = no growth, -100 = all killed)
Settings: 10 µM unless noted
Compounds without any hit were thinned out: in the full panel of roughly 83,000, 20% have a hit.
Could you give me the number in %? Just the number is fine.

Consider the following illustrative entries.
compound | assayed_system | endpoint | reading
COc1cc(/C=C2\C(=O)Nc3ccccc32)ccc1OCc1ccc(F)cc1 | A498 renal | growth | 89.2
COc1ccc(C2CC(c3ccc(Nc4nc(NCCO)nc(N5CCOCC5)n4)cc3)=Nc3c(N)nc(N)nc3N2)cc1 (stereo not drawn) | A498 renal | growth | 87.9

Now look at this one.
Ask: Which growth value is on record for C#Cc1nc(C(=O)NCCC(=O)Nc2ccc(NC(=O)c3ccc(/C=C/C(=O)c4nccn4C)cc3)cc2)cs1 ?
Result: 90.5
